Where a SMILES comes first, the peptide text is derived from it. Bridges are numbered along the chain shown (N, C = ends).
// rNaV1.4 (Rattus norvegicus, UniProt P15390) pIC50 records
Give only the number. pIC50 is defined as minus log10 of concentration in molar units.

input: What reported pIC50 corresponds to C[C@@H]1NC(=O)[C@H](CC(N)=O)NC(=O)[C@H](Cc2c[nH]c3ccccc23)NC(=O)[C@H](CCCNC(=N)N)NC(=O)[C@H](C)NC(=O)[C@H](Cc2c[nH]c3ccccc23)NC(=O)[C@H](CCCNC(=N)N)NC(=O)[C@H](CCCNC(=N)N)NC(=O)[C@@H](N)CSSC[C@@H](C(N)=O)NC1=O [PnCS1[R9A], CRRWARWNAC ^*] (H-CRRWARWNAC-NH2; disulfide 1-10) on rNaV1.4 (Rattus norvegicus, UniProt P15390)?
output: 5.96

input: Quick check: pIC50 on rNaV1.4 (Rattus norvegicus, UniProt P15390), item C[C@@H]1NC(=O)[C@H](Cc2c[nH]c3ccccc23)NC(=O)[C@H](CCCNC(=N)N)NC(=O)[C@H](CCCNC(=N)N)NC(=O)[C@@H](N)CSSC[C@@H](C(N)=O)NC(=O)[C@H](CCCNC(=N)N)NC(=O)[C@H](CC(N)=O)NC(=O)[C@H](CCCCN)NC(=O)[C@H](CCCNC(=N)N)NC1=O [PnCS1[W7K], CRRWARKNRC ^*] (H-CRRWARKNRC-NH2; disulfide 1-10) ?
output: 5.77

input: What measured pIC50 is associated with C[C@@H]1NC(=O)[C@H](Cc2c[nH]c3ccccc23)NC(=O)[C@H](CCCNC(=N)N)NC(=O)[C@H](CCCCN)NC(=O)[C@@H](N)CSSC[C@@H](C(N)=O)NC(=O)[C@H](CCCNC(=N)N)NC(=O)[C@H](CC(N)=O)NC(=O)[C@H](Cc2c[nH]c3ccccc23)NC(=O)[C@H](CCCNC(=N)N)NC1=O [PnCS1[R2K], CKRWARWNRC ^*] (H-CKRWARWNRC-NH2; disulfide 1-10) on rNaV1.4 (Rattus norvegicus, UniProt P15390)?
output: 6.10

input: API: value(readout= pIC50, system= rNaV1.4 (Rattus norvegicus, UniProt P15390), query= C[C@@H]1NC(=O)[C@H](Cc2c[nH]c3ccccc23)NC(=O)[C@H](CCCNC(=N)N)NC(=O)[C@H](CCCNC(=N)N)NC(=O)[C@@H](N)CSSC[C@@H](C(N)=O)NC(=O)[C@H](CCCNC(=N)N)NC(=O)[C@H](CCCCN)NC(=O)[C@H](Cc2c[nH]c3ccccc23)NC(=O)[C@H](CCCNC(=N)N)NC1=O [PnCS1[N8K], CRRWARWKRC ^*] (H-CRRWARWKRC-NH2; disulfide 1-10) )
output: 6.05

input: Missing value: pIC50, rNaV1.4 (Rattus norvegicus, UniProt P15390), entry C[C@@H]1NC(=O)[C@H](CCCNC(=N)N)NC(=O)[C@H](C)NC(=O)[C@H](Cc2c[nH]c3ccccc23)NC(=O)[C@H](CCCNC(=N)N)NC(=O)[C@H](CCCNC(=N)N)NC(=O)[C@@H](N)CSSC[C@@H](C(N)=O)NC(=O)[C@H](CCCNC(=N)N)NC(=O)[C@H](CC(N)=O)NC1=O [PnCS1[W7A], CRRWARANRC ^*] (H-CRRWARANRC-NH2; disulfide 1-10) . Fill in?
output: 5.96

----------
Where a SMILES comes first, the peptide text is derived from it. Bridges are numbered along the chain shown (N, C = ends).
Value kind: pIC50
Value format note: pIC50 is -log10 of concentration (mol/L); just state the number.

input: Notebook: pull reported pIC50 for rNaV1.7 (Rattus norvegicus, UniProt O08562), entry C[C@@H]1NC(=O)[C@H](CCCCN)NC(=O)[C@H](CCCNC(=N)N)NC(=O)[C@H](CCCNC(=N)N)NC(=O)[C@@H](N)CSSC[C@@H](C(N)=O)NC(=O)[C@H](CCCNC(=N)N)NC(=O)[C@H](CC(N)=O)NC(=O)[C@H](Cc2c[nH]c3ccccc23)NC(=O)[C@H](CCCNC(=N)N)NC1=O [PnCS1[W4K], CRRKARWNRC ^*] (H-CRRKARWNRC-NH2; disulfide 1-10)
output: 5.13

input: // fetch rNaV1.7 (Rattus norvegicus, UniProt O08562) pIC50 for C[C@@H]1NC(=O)[C@H](Cc2c[nH]c3ccccc23)NC(=O)[C@H](CCCNC(=N)N)NC(=O)[C@H](CCCNC(=N)N)NC(=O)[C@@H](N)CSSC[C@@H](C(N)=O)NC(=O)[C@H](CCCNC(=N)N)NC(=O)[C@H](CC(N)=O)NC(=O)[C@H](Cc2ccc(O)cc2)NC(=O)[C@H](CCCNC(=N)N)NC1=O [PnCS1[W7Y], CRRWARYNRC ^*] (H-CRRWARYNRC-NH2; disulfide 1-10)
output: 5.09

input: Give rNaV1.7 (Rattus norvegicus, UniProt O08562) pIC50 for C[C@@H]1NC(=O)[C@H](Cc2c[nH]c3ccccc23)NC(=O)[C@H](CCCNC(=N)N)NC(=O)[C@H](CCCNC(=N)N)NC(=O)[C@@H](N)CSSC[C@@H](C(N)=O)NC(=O)[C@H](CCCNC(=N)N)NC(=O)[C@H](CC(N)=O)NC(=O)[C@H](Cc2c[nH]c3ccccc23)NC(=O)[C@H](CCCNC(=N)N)NC1=O [PnCS1, CRRWARWNRC ^*] (H-CRRWARWNRC-NH2; disulfide 1-10)
output: 6.05

----------
- System tested: mNaV1.6 (Mus musculus, UniProt Q9WTU3)
- Sequence (Q9WTU3 whole entry): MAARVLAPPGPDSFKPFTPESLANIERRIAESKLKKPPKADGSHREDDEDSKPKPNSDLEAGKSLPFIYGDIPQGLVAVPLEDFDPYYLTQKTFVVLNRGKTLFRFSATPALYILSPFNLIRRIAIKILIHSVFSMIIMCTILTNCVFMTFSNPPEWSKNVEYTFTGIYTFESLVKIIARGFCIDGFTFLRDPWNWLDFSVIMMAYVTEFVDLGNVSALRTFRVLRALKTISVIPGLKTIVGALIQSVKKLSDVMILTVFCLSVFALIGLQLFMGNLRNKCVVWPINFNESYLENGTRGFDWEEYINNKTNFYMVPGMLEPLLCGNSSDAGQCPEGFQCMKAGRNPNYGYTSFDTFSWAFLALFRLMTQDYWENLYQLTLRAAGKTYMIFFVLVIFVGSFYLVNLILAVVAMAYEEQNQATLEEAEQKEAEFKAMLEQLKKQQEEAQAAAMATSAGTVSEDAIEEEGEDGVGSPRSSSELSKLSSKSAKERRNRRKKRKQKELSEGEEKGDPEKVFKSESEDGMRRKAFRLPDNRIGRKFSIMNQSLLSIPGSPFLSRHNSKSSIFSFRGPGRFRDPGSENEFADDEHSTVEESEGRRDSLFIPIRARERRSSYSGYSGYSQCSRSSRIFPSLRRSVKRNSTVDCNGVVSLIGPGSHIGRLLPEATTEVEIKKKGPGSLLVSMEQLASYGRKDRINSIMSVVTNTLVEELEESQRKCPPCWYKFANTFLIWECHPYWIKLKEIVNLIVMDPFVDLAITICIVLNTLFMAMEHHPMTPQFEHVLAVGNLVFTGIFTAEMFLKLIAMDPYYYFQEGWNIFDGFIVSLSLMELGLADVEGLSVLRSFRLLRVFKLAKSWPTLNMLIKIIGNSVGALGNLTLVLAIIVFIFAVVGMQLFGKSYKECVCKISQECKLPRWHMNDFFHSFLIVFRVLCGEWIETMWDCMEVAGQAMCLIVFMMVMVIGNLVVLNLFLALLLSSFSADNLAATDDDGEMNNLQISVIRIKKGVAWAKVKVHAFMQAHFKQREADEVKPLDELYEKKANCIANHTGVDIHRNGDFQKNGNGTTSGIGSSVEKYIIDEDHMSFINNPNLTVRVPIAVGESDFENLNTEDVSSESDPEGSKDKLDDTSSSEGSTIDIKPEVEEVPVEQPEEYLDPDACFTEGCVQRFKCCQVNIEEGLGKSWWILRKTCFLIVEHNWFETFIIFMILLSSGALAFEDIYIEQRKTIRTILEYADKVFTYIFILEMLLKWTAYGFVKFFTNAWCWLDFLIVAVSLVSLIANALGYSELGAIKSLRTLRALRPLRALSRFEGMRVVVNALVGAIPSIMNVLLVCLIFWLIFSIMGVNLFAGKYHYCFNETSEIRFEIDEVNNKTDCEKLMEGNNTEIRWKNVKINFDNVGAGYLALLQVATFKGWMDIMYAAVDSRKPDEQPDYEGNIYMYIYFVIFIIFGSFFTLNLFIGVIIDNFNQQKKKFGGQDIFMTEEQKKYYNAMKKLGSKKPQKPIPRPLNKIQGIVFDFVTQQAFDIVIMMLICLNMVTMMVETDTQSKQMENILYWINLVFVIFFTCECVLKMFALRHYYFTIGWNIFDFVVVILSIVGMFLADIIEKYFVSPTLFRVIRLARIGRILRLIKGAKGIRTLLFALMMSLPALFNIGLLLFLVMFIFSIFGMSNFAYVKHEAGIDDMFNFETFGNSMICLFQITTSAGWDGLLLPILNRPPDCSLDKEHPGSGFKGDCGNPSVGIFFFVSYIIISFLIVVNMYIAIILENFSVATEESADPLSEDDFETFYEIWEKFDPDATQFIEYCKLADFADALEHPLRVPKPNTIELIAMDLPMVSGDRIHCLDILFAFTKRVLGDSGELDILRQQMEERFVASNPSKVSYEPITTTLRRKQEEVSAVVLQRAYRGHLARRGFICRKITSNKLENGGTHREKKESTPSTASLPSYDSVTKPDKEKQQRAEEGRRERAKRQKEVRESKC
- Protocol notes: Two-electrode voltage-clamp on Xenopus laevis oocytes expressing NaV1.6
Where a SMILES comes first, the peptide text is derived from it. Bridges are numbered along the chain shown (N, C = ends).
Value kind: pIC50
Schema: pIC50 number; meaning minus log10 of the concentration expressed in molar units.

input: Tell me the measured pIC50 of C[C@@H]1NC(=O)[C@H](C)NC(=O)[C@H](CCCNC(=N)N)NC(=O)[C@H](CCCNC(=N)N)NC(=O)[C@@H](N)CSSC[C@@H](C(N)=O)NC(=O)[C@H](CCCNC(=N)N)NC(=O)[C@H](CC(N)=O)NC(=O)[C@H](Cc2c[nH]c3ccccc23)NC(=O)[C@H](CCCNC(=N)N)NC1=O [PnCS1[W4A], CRRAARWNRC ^*] (H-CRRAARWNRC-NH2; disulfide 1-10) , please.
output: 5.92

input: Fill blank: measured pIC50 of the compound C[C@@H]1NC(=O)[C@H](Cc2c[nH]c3ccccc23)NC(=O)[C@H](CCCNC(=N)N)NC(=O)[C@H](CCCNC(=N)N)NC(=O)[C@@H](N)CSSC[C@@H](C(N)=O)NC(=O)[C@H](CCCNC(=N)N)NC(=O)[C@H](CC(N)=O)NC(=O)[C@H](Cc2c[nH]c3ccccc23)NC(=O)[C@H](CCCCN)NC1=O [PnCS1[R6K], CRRWAKWNRC ^*] (H-CRRWAKWNRC-NH2; disulfide 1-10) is ____.
output: 6.05

input: What does the data say about its pIC50? Entry: C[C@@H]1NC(=O)[C@H](Cc2c[nH]c3ccccc23)NC(=O)[C@H](CCCNC(=N)N)NC(=O)[C@H](C)NC(=O)[C@H](Cc2c[nH]c3ccccc23)NC(=O)[C@H](CCCNC(=N)N)NC(=O)[C@H](CCCNC(=N)N)NC(=O)[C@@H](N)CSSC[C@@H](C(N)=O)NC(=O)[C@H](CCCNC(=N)N)NC1=O [PnCS1[N8A], CRRWARWARC ^*] (H-CRRWARWARC-NH2; disulfide 1-10)
output: 6.10

----------
Can you tell me inhibition at 100 µM for the items I'm about to list?
- System tested: hNaV1.5 (Homo sapiens)
- Sequence (Q14524 whole entry): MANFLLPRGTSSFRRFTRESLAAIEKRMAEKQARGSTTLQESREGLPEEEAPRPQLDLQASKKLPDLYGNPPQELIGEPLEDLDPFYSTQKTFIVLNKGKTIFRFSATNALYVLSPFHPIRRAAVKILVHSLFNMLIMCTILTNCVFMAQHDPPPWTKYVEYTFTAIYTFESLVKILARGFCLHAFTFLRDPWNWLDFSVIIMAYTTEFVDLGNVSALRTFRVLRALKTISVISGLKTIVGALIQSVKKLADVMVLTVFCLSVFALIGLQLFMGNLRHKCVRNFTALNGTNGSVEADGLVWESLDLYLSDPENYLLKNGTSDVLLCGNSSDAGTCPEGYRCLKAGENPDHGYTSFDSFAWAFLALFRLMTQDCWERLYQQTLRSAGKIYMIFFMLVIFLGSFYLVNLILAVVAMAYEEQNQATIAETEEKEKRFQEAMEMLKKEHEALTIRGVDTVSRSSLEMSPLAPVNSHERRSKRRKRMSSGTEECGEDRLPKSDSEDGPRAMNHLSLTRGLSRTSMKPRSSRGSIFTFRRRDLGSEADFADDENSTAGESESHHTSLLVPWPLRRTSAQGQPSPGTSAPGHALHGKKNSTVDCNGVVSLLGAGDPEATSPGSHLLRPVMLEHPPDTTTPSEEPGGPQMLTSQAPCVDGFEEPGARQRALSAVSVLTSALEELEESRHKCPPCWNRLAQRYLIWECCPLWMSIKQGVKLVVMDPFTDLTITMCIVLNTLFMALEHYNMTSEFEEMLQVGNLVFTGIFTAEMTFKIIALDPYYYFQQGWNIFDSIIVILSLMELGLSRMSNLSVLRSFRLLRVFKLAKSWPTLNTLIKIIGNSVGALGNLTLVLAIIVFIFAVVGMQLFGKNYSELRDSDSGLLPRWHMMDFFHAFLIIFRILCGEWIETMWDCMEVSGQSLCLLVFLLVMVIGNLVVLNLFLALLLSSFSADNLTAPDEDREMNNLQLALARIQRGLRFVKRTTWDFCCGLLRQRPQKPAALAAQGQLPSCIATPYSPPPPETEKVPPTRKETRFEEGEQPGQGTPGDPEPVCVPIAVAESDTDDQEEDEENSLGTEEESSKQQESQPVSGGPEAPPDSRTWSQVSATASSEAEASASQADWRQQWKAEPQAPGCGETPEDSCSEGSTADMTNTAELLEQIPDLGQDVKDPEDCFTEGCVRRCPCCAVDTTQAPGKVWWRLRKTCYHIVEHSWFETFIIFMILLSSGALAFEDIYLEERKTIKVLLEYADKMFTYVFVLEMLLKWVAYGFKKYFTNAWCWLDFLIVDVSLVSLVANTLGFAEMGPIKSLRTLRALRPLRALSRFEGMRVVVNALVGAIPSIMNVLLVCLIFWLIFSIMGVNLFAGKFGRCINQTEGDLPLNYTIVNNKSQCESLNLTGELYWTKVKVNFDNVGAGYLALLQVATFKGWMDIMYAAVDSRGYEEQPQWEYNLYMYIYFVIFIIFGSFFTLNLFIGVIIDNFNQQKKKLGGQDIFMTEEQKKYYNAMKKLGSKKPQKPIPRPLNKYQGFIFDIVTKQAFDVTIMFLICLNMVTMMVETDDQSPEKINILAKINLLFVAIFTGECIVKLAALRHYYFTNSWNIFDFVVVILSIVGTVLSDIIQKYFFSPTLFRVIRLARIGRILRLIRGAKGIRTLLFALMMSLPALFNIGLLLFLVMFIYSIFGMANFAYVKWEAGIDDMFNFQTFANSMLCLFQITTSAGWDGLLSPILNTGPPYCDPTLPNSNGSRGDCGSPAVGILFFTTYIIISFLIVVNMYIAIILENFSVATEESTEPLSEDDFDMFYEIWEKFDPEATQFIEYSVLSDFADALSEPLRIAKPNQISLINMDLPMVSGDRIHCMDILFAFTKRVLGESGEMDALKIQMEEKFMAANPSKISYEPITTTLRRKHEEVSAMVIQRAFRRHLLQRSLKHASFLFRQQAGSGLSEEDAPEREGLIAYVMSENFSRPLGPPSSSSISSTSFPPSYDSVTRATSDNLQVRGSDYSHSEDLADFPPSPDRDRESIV
- Protocol notes: Two-electrode voltage-clamp on Xenopus laevis oocytes expressing NaV1.5
- Measurement parameters: read-out: Maximum % inhibition NaV1.5
Where a SMILES comes first, the peptide text is derived from it. Bridges are numbered along the chain shown (N, C = ends).
// return numeric value only (unit: %, not printed)

input: Please give the measured inhibition at 100 µM for this compound: C[C@@H]1NC(=O)[C@H](CCCCN)NC(=O)[C@H](CCCNC(=N)N)NC(=O)[C@H](CCCNC(=N)N)NC(=O)[C@@H](N)CSSC[C@@H](C(N)=O)NC(=O)[C@H](CCCNC(=N)N)NC(=O)[C@H](CC(N)=O)NC(=O)[C@H](Cc2c[nH]c3ccccc23)NC(=O)[C@H](CCCNC(=N)N)NC1=O [PnCS1[W4K], CRRKARWNRC ^*] (H-CRRKARWNRC-NH2; disulfide 1-10)
output: 89

input: Fill blank: measured inhibition at 100 µM of the compound C[C@@H]1NC(=O)[C@H](Cc2c[nH]c3ccccc23)NC(=O)[C@H](CCCNC(=N)N)NC(=O)[C@H](CCCCN)NC(=O)[C@@H](N)CSSC[C@@H](C(N)=O)NC(=O)[C@H](CCCNC(=N)N)NC(=O)[C@H](CC(N)=O)NC(=O)[C@H](Cc2c[nH]c3ccccc23)NC(=O)[C@H](CCCNC(=N)N)NC1=O [PnCS1[R2K], CKRWARWNRC ^*] (H-CKRWARWNRC-NH2; disulfide 1-10) is ____.
output: 82

input: Look at this compound and give its reported inhibition at 100 µM. C[C@@H]1NC(=O)[C@H](Cc2c[nH]c3ccccc23)NC(=O)[C@H](CCCNC(=N)N)NC(=O)[C@H](CCCNC(=N)N)NC(=O)[C@@H](N)CSSC[C@@H](C(N)=O)NC(=O)[C@H](CCCNC(=N)N)NC(=O)[C@H](CC(N)=O)NC(=O)[C@H](Cc2ccc(O)cc2)NC(=O)[C@H](CCCNC(=N)N)NC1=O [PnCS1[W7Y], CRRWARYNRC ^*] (H-CRRWARYNRC-NH2; disulfide 1-10)
output: 75
